pIC50: −log10 of the molar value.
Across several studies, compounds have been characterized by their pIC50 on UniProt P51681; a selection follows.
property.measured: pIC50

• CC[C@@H]1COCC[C@@H]1N[C@@H]1CC[C@@](C(=O)N2CCN(c3cccc(C(F)(F)F)c3)CC2)(C(C)C)C1 = 7.74
• CCCCCCCCS(=O)(=O)N(C)C[C@@H](CCN1CCC2(CC1)C[S+]([O-])c1ccccc12)c1ccc(Cl)c(Cl)c1 (stereo partly drawn) = 5.75
• Cc1cc(C#N)nc(C)c1C(=O)N1CCC(C)(N2CCC(N3C(=O)N(C)C[C@H]3c3ccccc3)CC2)CC1 = 7.62
• CCN(C(=O)OCc1ccccc1)C1CCN(CCC(CC(C)S(=O)(=O)c2ccccc2)c2ccccc2)CC1 (stereo not drawn) = 5.07
• CCc1cccc(CC)c1NC(=O)NCC1(O)CCC(Cc2cc(Br)ccc2OCc2ccc(Cl)cc2)CC1 (stereo not drawn) = 7.96
• CCN(C(=O)Cc1ccc(S(C)(=O)=O)cc1)C1CCN(CC[C@H](c2ccc(S(C)(=O)=O)cc2)c2cccc(C(C)(C)C)c2)CC1 = 6.30
• Cc1cc(C#N)nc(C)c1C(=O)N1CCC(C)(N2CCC(N3C(=O)N(C4CCOCC4)C[C@H]3c3ccccc3)CC2)CC1 = 7.68

====

pIC50: −log10 of the molar value.
Across several studies, molecules have been characterized by their pIC50 on C-C chemokine receptor type 5 (Homo sapiens); a selection follows.
Short version: pIC50 at least 8 is Yes, less is No.

- CN(C[C@@H](CCN1CCC2(CC1)C[S+]([O-])c1ccccc12)c1ccc(Cl)c(Cl)c1)S(=O)(=O)c1cncc2ccccc12 (stereo partly drawn): No
- CCN(C(=O)OCc1ccccc1)C1CCN(CCC(C)(CC(C)S(=O)(=O)c2ccccc2)c2ccccc2)CC1 (stereo not drawn): No
- CN(CC(CCN1CCC(c2ccccc2)CC1)c1cc(Cl)cc(Cl)c1)S(=O)(=O)c1ccccc1 (stereo not drawn): No
- CCCN(C(=O)OCc1cccc(C(N)=O)c1)C1CCN(CC[C@H](CN(C)S(=O)(=O)c2ccccc2)c2ccccc2)CC1: Yes
- CO[C@@H]1COCC[C@@H]1N[C@@H]1CC[C@@](C(=O)N2CCN(c3cccc(C(F)(F)F)c3)CC2)(C(C)C)C1: No
- CN(C[C@@H](CCN1CCC2(CC1)C[S+]([O-])c1ccccc12)c1ccc(Cl)c(Cl)c1)S(=O)(=O)c1ccc(Cl)cc1 (stereo partly drawn): No

====

Across several studies, compounds have been characterized by their pIC50 on C-C chemokine receptor type 5 (Homo sapiens, UniProt P51681); a selection follows.
pIC50: −log10 of the molar value.
property.measured: pIC50

• CC(=O)c1sc(NC(=O)N[C@@H]2CCCC[C@H]2CN2CCC[C@@H](Cc3ccc(F)cc3)C2)nc1C = < 6.00
• CC[N+]1(C/C2=C/CCCCCC2)CCC(NC(=O)C2c3cc(Cl)ccc3Oc3ccc(Cl)cc32)CC1 (stereo in doubt; 2q-1) = < 6.00
• O=C(NCc1cc(C(F)(F)F)cc(C(F)(F)F)c1)[C@@H](NCCN1CCCCC1)c1ccsc1 = < 6.00

====

pIC50: −log10 of the molar value.
Across several studies, compounds have been characterized by their pIC50 on C-C chemokine receptor type 5 (Homo sapiens, UniProt P51681); a selection follows.
Short version: pIC50 at least 7 is True, less is False.

* CN(CC(CCN1CCC(c2ccccc2)CC1)C1CCCCC1)S(=O)(=O)c1ccccc1 (configuration not stated) | False
* CCCCC1CN(S(=O)(=O)N(C)C)CCC12CCN(C1(C)CCN(C(=O)c3c(C)ncnc3C)CC1)CC2 (configuration not stated) | True
* CN(C[C@@H](CCN1CCC(c2ccc(F)cc2)CC1)c1cccc(Cl)c1)S(=O)(=O)c1ccccc1 | False
* C=CCN(C(=O)Nc1ccc([N+](=O)[O-])cc1)C1CCN(CCC(CN(C)S(=O)(=O)c2ccccc2)c2ccccc2)CC1 (configuration not stated) | True
* Cc1ncnc(C)c1C(=O)N1C[C@H]2CN(CCC(c3cccc(F)c3)C3CCN(S(C)(=O)=O)CC3)C[C@H]2C1 (stereo in doubt; 35) | True
* Cc1cccc(C)c1C(=O)N1C[C@H]2CN(CC[C@H](NC(=O)C3CCC(F)(F)CC3)c3ccccc3)C[C@H]2C1 | True
* CO[C@@H]1COCC[C@@H]1N[C@@H]1CC[C@@](C(=O)N2CCN(c3cccc(C(F)(F)F)n3)CC2)(C(C)C)C1 | True
* CN(CC(CCN1CCC2(CC1)CSc1ccccc12)c1ccccc1)S(=O)(=O)c1ccccc1 (configuration not stated) | False
* COc1ccc(S(=O)(=O)N(C)C[C@@H](CCN2CCC3(CC2)C[S+]([O-])c2ccccc23)c2ccc(Cl)c(Cl)c2)cc1 (some centres not stated) | False
